- Test system: SNB-19 CNS
- experimentalDetails: NCI-60 one-dose screen, 48 h
- cond: 10 µM unless noted
About 83,000 compounds went through this panel and 20% of them were active in at least one assay; those are over-represented in the sample as a whole. Activity calls are given as the source filed them. Rule for the calls: active = growth percent below 10; inactive = the rest.
Pick from T for active, F for inactive when you respond.

Which outcome was entered for the molecule N#Cc1c(N)nc2c(c1N)C(c1ccc(F)cc1)c1ccc(N)cc1O2 (centres undefined) in this test?
F

In this assay, the call recorded for COc1cc(C2C(C#N)=C(N)OC3=C2C(=O)c2ccccc2C3=O)cc(OC)c1OC (centres undefined) was what?
F

Record lookup: outcome of this test for CN1C(=O)N(C)C2Nn3c(s/c(=C\c4ccc(Cl)cc4Cl)c3=O)=NC21 (centres undefined) ?
F

Recorded test call requested for N#C/C(=C\c1c(-c2ccccc2)[nH]c2ccccc12)S(=O)(=O)c1ccccc1
F

Hi team, can someone confirm the assay call for Nc1ccc(-c2ccc(-c3ccccc3N)c3[nH]c4ccccc4c23)cc1 ?
F

Hello, I am checking results. What call was entered for O=C(NC1CCN(Cc2ccccc2)CC1)c1cc(C(=O)NC2CCN(Cc3ccccc3)CC2)cc(C(=O)NC2CCN(Cc3ccccc3)CC2)c1 ?
F

# lookup: test call for COC(=O)C1=Nc2ccc(F)cc2/C1=C/c1sc(=S)[nH]c1O
F

Hey, what did the test say about CN1CCN(c2nc(Nc3ccc(O)cc3)nc3ccccc23)CC1 ?
F

// return assay outcome for COc1ccc(C2C3=C(COC3=O)N(CCO)c3cc4c(cc32)CCC4)cc1OC (centres undefined)
F

Per the assay record, what outcome was assigned to O=Cc1c(OCc2cnnn2CC(=O)Nc2ccc(Br)cc2)ccc2ccccc12 ?
F

Query: recorded result category for CCOC(=O)c1sc(-c2ccc(OS(=O)(=O)c3cccs3)c(C=O)c2)nc1C in this test
T

Kindly provide the recorded test outcome for the following molecule: Cn1c(/C=C(\C#N)c2cccc(C(F)(F)F)c2)nc2c(N3CCOCC3)nc(Cl)nc21
F

Could you kindly confirm the outcome this assay logged for CC(C)c1ccc(S(=O)(=O)NC(=O)NC2CCCC2)cc1 ?
F

Give the logged outcome of this assay for the following molecule: O=C(Nc1nc2c(s1)CCc1c-2c(Br)n(Cc2ccccc2)c1Br)c1ccccc1
F

What call does the record list for COc1ccc2oc(=O)cc(Cn3cc(Cn4cnc5c4c(=O)n(C)c(=O)n5C)nn3)c2c1 ?
F

Please indicate how the test categorized COc1cc2nc(-c3cnc(N(C)C)nc3)nc(NC3CCN(Cc4ccccc4)CC3)c2cc1OC .
T

Given O=C(COc1cc(O)c2c(=O)cc(-c3ccccc3)oc2c1)Nc1ccccc1 , state the outcome it received in this test.
F

Kindly provide the recorded test outcome for the following molecule: COc1cc(NC(=O)CCSc2nc3ccccc3c(=O)n2Cc2ccccc2)cc(OC)c1OC
F

Assay outcome for COc1cc(C(C)n2cc(-c3ccccc3)nn2)ccc1OC1CCCCC1 (centres undefined) : what was it?
F

Give the logged outcome of this assay for the following molecule: COc1cc(/C=C2\CN(S(=O)(=O)c3ccccc3)C/C(=C\c3cc(CN4CCCC4)c(O)c(OC)c3)C2=O)cc(CN2CCCC2)c1O
F

Could you please tell me the result logged for Nc1ncnc(N)c1NC(=O)c1ccc(OCc2ccccc2)cc1 in this assay?
F

Outcome? O=S1(=O)N(Cc2ccccc2)[C@@H](Cc2ccccc2)C2O[C@H]2[C@H](Cc2ccccc2)N1Cc1ccccc1 (some centres undefined)
F

Check the results log: what was the call for Cc1c(-c2csc(-n3nc(C(F)(F)F)cc3C(F)(F)F)n2)no[n+]1[O-] ?
F

Kindly provide the recorded test outcome for the following molecule: O=C(Nc1ccc(Br)cc1F)c1cc(I)ccc1O
F

Which outcome was entered for the molecule O=C1OC(c2ccccc2)(c2ccccc2)c2ccsc21 in this test?
F

How did this test come out for COC(=O)/C(=C\c1c(-c2ccccc2)[nH]c2ccccc12)S(C)(=O)=O ?
F

What is the recorded call for this molecule in the test? Clc1ccc(Nc2scc3[n+]2CCC3)cc1
F

Given COc1cc(/C=C2\CN(C)C/C(=C\c3cc(CN4CCCCC4)c(O)c(OC)c3)C2=O)cc(CN2CCCCC2)c1O , state the outcome it received in this test.
F

Tell me the recorded outcome of this test for CC1CCCCN1CCCNC(=O)c1ccc2c(c1)sc1nc(-c3ccc(F)cc3)cn12 (centres undefined) .
F

Outcome logged for N#C/C(=C\c1c(-c2ccccc2)[nH]c2ccccc12)C(=O)c1ccccc1 in this assay:
F

Please let me know the test result on file for COc1ccc(N(C)c2nc(N)nc3sc4c(c23)CCCC4)cc1 .
F

Call for entry COc1cc(-c2c3c(c(Br)n2Cc2ccccc2)-c2nc(N)sc2CC3)cc(OC)c1OC :
F

Look up the recorded call for CC1=C(C(=O)OCC2CCN(C(=O)OC(C)(C)C)CC2)[C@H](c2cccc(C#N)c2)C2=C(CC(C)(C)CC2=O)N1 in this test.
F

Give the logged outcome of this assay for the following molecule: O=C(NN1C(=O)CSC1c1ccc(Cl)cc1)c1[nH]c2ccc(F)cc2c1-c1ccccc1 (centres undefined)
F

State the result this test recorded for COc1ccc(-c2nsc3c2NC(=O)CC3c2ccsc2)cc1 (centres undefined) .
F

Which result was noted for this molecule in the test: CC(=O)n1cc(-c2c[nH]c3ccccc23)c(-c2ccc(Cl)cc2)n1
F

Status in this test for NC(=O)CSc1nc(-c2ccc(F)cc2)cc(-c2ccco2)n1 ?
F

Which outcome was entered for the molecule CCOc1c(Br)cc(C2C(C(=O)OC)=CN(C)C=C2C(=O)OC)cc1OC in this test?
F

Hi team, can someone confirm the assay call for O=S1(=O)N(Cc2ccccc2)[C@@H](Cc2ccccc2)[C@H](O)[C@H](O)[C@H](Cc2ccccc2)N1Cc1ccccc1 ?
F

Sourced from PubChem BioAssay (NCI)
